Hey, just so you know, these numbers are from PubChem BioAssay (NCI).

# System: MDA-MB-231 breast
# Procedure Summary: NCI-60 one-dose screen, 48 h (100 = growth as untreated, 0 = no growth, -100 = all killed)
# Reported Conditions: 10 µM
This is part of a sample that, as a whole, favours compounds with a hit. Of some 83,000 tested, about 20% had one in any assay.
Would you kindly list growth for each of these molecules?
Please respond with the number in % and leave the unit unwritten.

Let me know recorded growth for `CN1CCc2c(sc3nc4n(-c5ccc(Cl)cc5)c(=O)[nH]n4c(=O)c23)C1` , thanks. 120

Let me know recorded growth for `Brc1ccc2c(c1)-c1ccccc1C1=NCCN12` , thanks. -7.62

Let me know recorded growth for `O=C1/C=C/[C@@H](O)[C@@H]2C[C@@H](O)C[C@H]2/C=C/CCC[C@H](C(F)(F)F)O1` , thanks. -31.8

Let me know recorded growth for `O=C(CN(C1CCCCC1)C1CCCCC1)Nc1ccc(S(=O)(=O)c2ccc(NC(=O)CN(C3CCCCC3)C3CCCCC3)cc2)cc1` , thanks. -49.4

Let me know recorded growth for `Cc1noc(C)c1CSc1ccccc1C(=O)N1CCN(c2cccc(C(F)(F)F)c2)CC1` , thanks. 65.7

Let me know recorded growth for `CCOC(=O)c1cc(C(=O)c2cc(OC)c(OC)c(OC)c2)n2nc(C)ccc12` , thanks. 45.8

Let me know recorded growth for `COc1cc2c(Nc3ccc(S(N)(=O)=O)cc3)ncnc2c(OC)c1OC` , thanks. 94.9

Let me know recorded growth for `Cc1n[nH]c(C)c1N=Nc1cccc2c1C(=O)c1ccccc1C2=O` , thanks. 82.4

Let me know recorded growth for `COc1cc(-c2ccc[nH]2)[nH]c1/C=C1\N=C(C)C(C(=O)NC(C)C)=C1C` , thanks. -9.67

Let me know recorded growth for `CC(=O)Nc1ccc(S(=O)(=O)N/N=C(\C)c2ccc(C)cc2C)cc1` , thanks. 113

Let me know recorded growth for `CCCCCCCCCCOC(c1ccccc1)c1ccccc1` , thanks. 88.4

Let me know recorded growth for `Fc1ccc(C(c2ccc(F)cc2)C(Cl)Cl)cc1` , thanks. 92.4

Let me know recorded growth for `Cc1ccc(-n2c(C)nn3c(=O)c4c5c(sc4nc23)CN(C)CC5)cc1` , thanks. 96.3

Let me know recorded growth for `CN(C)CCCOc1ccccc1NC1=C(Cl)C(=O)C(Nc2ccccc2OCCCN(C)C)=C(Cl)C1=O` , thanks. -71.9

Let me know recorded growth for `C=CCn1c(SCC(=O)Nc2ccc(C(=O)/C=C/c3cc(OC)c(OC)c(OC)c3)cc2)nnc1-c1cc(-c2ccc(Cl)cc2)nc2ccccc12` , thanks. 75

Let me know recorded growth for CC[C@@H](C(=O)[C@@H](C)[C@@H](O)[C@H](C)[C@@H]1O[C@@H]([C@@H](CC)C(=O)O)CC[C@@H]1C)C1O[C@]2(C=CC(=O)[C@]3(CC[C@@](C)([C@H]4CC[C@](O)(CC)[C@H](C)O4)O3)O2)[C@H](C)C[C@@H]1C (stereo partly drawn) , thanks. 30.3

Let me know recorded growth for `COc1ccc(-c2nc(-c3nc4ccc(C)cc4[nH]3)cc3c2[nH]c2ccccc23)cc1` , thanks. 15.8

Let me know recorded growth for COc1ccc(NC(=O)C2CC3C=CC2C3)c([N+](=O)[O-])c1 (stereo not drawn) , thanks. 93.3

Let me know recorded growth for `c1ccc(CCCCc2ccc3ccccc3n2)cc1` , thanks. 106

Let me know recorded growth for `CN1CCN(CCCn2c(=O)c3sc4ncccc4c3n3nnc(-c4ccccc4)c23)CC1` , thanks. -45.5

Let me know recorded growth for `Cc1ccc(NC(=S)NNC(=S)Nc2ccc(C)cc2)cc1` , thanks. 72.5

Let me know recorded growth for `CN(C)CCOc1ccc(-c2nc3sccn3c2-c2ccnc(S(C)(=O)=O)n2)cc1` , thanks. 110

Let me know recorded growth for `COc1cc2cc(Oc3ccc(NC(=O)c4cc(C(F)(F)F)cc(C(F)(F)F)c4)cc3)c(C)nc2cc1OC` , thanks. 59.2

Let me know recorded growth for `CCN(CC)CCOc1ccc2c(c1O)C(=O)c1ccccc1C2=O` , thanks. 82.8

Let me know recorded growth for `Cc1cn(-c2cccc(NC(=O)c3ccc(C)c(Nc4nccc(-c5cccnc5)n4)c3)c2)cn1` , thanks. -48.5

Let me know recorded growth for CC(=O)C1N=NCC1c1ccccc1 (stereo not drawn) , thanks. 97.9

Let me know recorded growth for COc1nc2c(c(=O)n1C)CN(c1ccccc1)C(=O)C(C)N2 (stereo not drawn) , thanks. 98.3

Let me know recorded growth for `CCOC(=O)c1sc2ncnc(Nc3ccc4c(cnn4C(=O)Nc4ccccc4)c3)c2c1C` , thanks. 37.2

Let me know recorded growth for `COc1cc(-c2nn(-c3ccc(NC(=O)NCCCNC(=O)c4ccccc4)cc3)cc2-c2ccncc2)ccc1Cl` , thanks. 19.1

Let me know recorded growth for Cc1ccc(C(SCC(N)C(=O)O)(c2ccc(C)cc2)c2ccc(C)cc2)cc1 (stereo not drawn) , thanks. 1.37

Let me know recorded growth for `C[C@@H](O)[C@H]1C(=O)N2C(C(=O)O)=C(SCCN=CN)C[C@H]12` , thanks. 9.83

Let me know recorded growth for `COc1ccc(/C=C2/SC(=S)NC2=O)c(OC)c1OC` , thanks. 62.7

Let me know recorded growth for `COc1cc(-c2nn(-c3cccc(NC(=O)NCCNC(=O)c4cccc(C(F)(F)F)c4)c3)cc2-c2ccncc2)ccc1Cl` , thanks. 41.4

Let me know recorded growth for `COc1cc(-c2nn(-c3cccc(NC(=O)NCCNC(=O)c4ccccc4)c3)cc2-c2ccncc2)ccc1Cl` , thanks. 25.9

Let me know recorded growth for `O=[N+]([O-])c1ccc(NCSc2ccc(Cl)cc2)cc1` , thanks. 94.3

Let me know recorded growth for `CCn1cc(C(=O)O)c(=O)c2cc(F)c(N3CCNCC3)cc21` , thanks. 100

Let me know recorded growth for `COc1ccc(Cl)cc1Nc1nc(C(F)(F)F)ccc1C(=O)N/N=C/c1cc(OC)c(OC)c(OC)c1` , thanks. -5.79

Let me know recorded growth for `COc1cc(C)ccc1Oc1nc(Nc2ccc(N3CCOCC3)cc2)ncc1NC(=O)Nc1cc(C(F)(F)F)cc(C(F)(F)F)c1` , thanks. 51.5
